measured on: Luciferin 4-monooxygenase (Photuris pensylvanica) (UniProt Q27757)
measurement protocol: Secondary Assay for Luciferase (Kinase-Glo TM) Inhibition Counterscreen
measurement setup: Kinase-Glo luciferase enzyme, luminescence; series mostly up to 58.1 µM
Records with an inconclusive call do not appear. Active and inactive are the calls of the source. Calls follow the shape of the dose curve; as a rule, active = well fitted inhibition curve with a large enough effect; inconclusive = small, poorly fitted or top-dose-only effect; inactive = flat fitted curve, though single readings scatter.
Hi there, use one of these labels in your reply, thanks! active, inactive

Please review the following examples before continuing.
structure_as_smiles=O=C1CCc2cc(S(=O)(=O)Nc3ccccc3F)ccc2N1 class_name=inactive
structure_as_smiles=Cc1cccc(OC2=NS(=O)(=O)c3ccccc32)c1 class_name=inactive
structure_as_smiles=Cc1ccc(NS(=O)(=O)c2ccc3[nH]c(=O)[nH]c3c2)cc1C class_name=inactive
structure_as_smiles=O=C1c2ccccc2C(=O)N1c1cccc2cnccc12 class_name=inactive

Ask: Assay outcome for Cc1ccc(NS(=O)(=O)c2ccc3c(c2)CCN(C(=O)C(F)(F)F)C3)cc1C : what was it?
Result: inactive

Ask: Assay outcome for O=C1c2ccccc2C(=O)C1c1ccnc2ccccc12 : what was it?
Result: inactive

Ask: Assay outcome for O=c1c2ccccc2cnn1-c1nc2ccccc2[nH]1 : what was it?
Result: active

Ask: Assay outcome for CC(=O)N(C1=C(Cl)C(=O)c2ccccc2C1=O)c1ccc(C(=O)O)cc1 : what was it?
Result: inactive

Ask: Assay outcome for Cc1ccc(NS(=O)(=O)c2ccc(Cl)cc2)cc1C : what was it?
Result: inactive

Ask: Assay outcome for c1ccc(C2=NNC(=NC3CC3)SC2)cc1 : what was it?
Result: active

Ask: Assay outcome for O=C1c2ccccc2C(=O)N1c1cc(=O)c2ccccc2[nH]1 : what was it?
Result: inactive

Ask: Assay outcome for COc1ccc(OC2=NS(=O)(=O)c3ccccc32)cc1 : what was it?
Result: inactive

Ask: Assay outcome for COc1cccc(N2C(=O)c3ccccc3C2=O)n1 : what was it?
Result: inactive

Ask: Assay outcome for Cc1ccc(NC(=O)c2ccc3c(c2)CCC(=O)N3)cc1C : what was it?
Result: inactive

Ask: Assay outcome for Fc1ccc(-c2nc3n(n2)Cc2ccccc2-3)cc1 : what was it?
Result: active

Ask: Assay outcome for Cc1nc(-c2ccc(C(=O)Nc3ccccc3F)cc2)cs1 : what was it?
Result: active

Reference source for all entries: PubChem BioAssay AID2530
